Experiment: Equilibrium solubility in pH buffers (3.0-8.0), 20% captisol and water
Type: physicochemical
Details: pH = 6.0 buffer (50 mM citrate), 24 hrs
Structures can show the parent of a compound that is named as a salt.
measured endpoint: FC: form change (XRPD of precipitate)

| compound | measurement |
| --- | --- |
| CC(=O)NCC1CCN(Cc2cc(Oc3ccc(N4CCN(CCC(=O)O)CC4)nc3)nc(-c3cc(Cl)cc(Cl)c3)c2)CC1 [Fumarate Type A] | 4 (1/2/3/4/5: new Form 1/2/3/4/5) |
| CC(=O)NCC1CCN(Cc2cc(Oc3ccc(N4CCN(CCC(=O)O)CC4)nc3)nc(-c3cc(Cl)cc(Cl)c3)c2)CC1 [HCl salt Type F] | A^ |
| CC(=O)NCC1CCN(Cc2cc(Oc3ccc(N4CCN(CCC(=O)O)CC4)nc3)nc(-c3cc(Cl)cc(Cl)c3)c2)CC1 [Sulfate Type B] | 3 (1/2/3/4/5: new Form 1/2/3/4/5) |

###

Assay: Complexation stability constant test: solubility in SBECD solutions
Type: physicochemical
Conditions: 25% (w/w) SBECD solution, pH 7.9, aqueous with cosolvent or surfactant or cyclodextrin, thermodynamic from solid; 25% SBECD (271.16 mmol/L); read-out: API Solubility

| compound | readout units | solubility at 24 h |
| --- | --- | --- |
| CC(=O)NCC1CCN(Cc2cc(Oc3ccc(N4CCN(CCC(=O)O)CC4)nc3)nc(-c3cc(Cl)cc(Cl)c3)c2)CC1 [Freeform Type D] | mM | 17.1 |

###

Assay: Complexation stability constant test: solubility in HPβCD solutions
Assay type: physicochemical
Details: 15% (w/w) HPβCD solution, aqueous with cosolvent or surfactant or cyclodextrin, thermodynamic from solid; 15% (w/w) HPβCD, RT, 24 hours, final pH 7.1; read-out: Solubility

| molecule | solubility at 24 h |
| --- | --- |
| CC(=O)NCC1CCN(Cc2cc(Oc3ccc(N4CCN(CCC(=O)O)CC4)nc3)nc(-c3cc(Cl)cc(Cl)c3)c2)CC1 [Freeform Type D] | 1420 µg/mL |

###

Experiment: Approximate solubility at RT
Type: physicochemical
Details: MTBE, organic solvent or mixture, thermodynamic from solid, MTBE, RT; read-out: Solubility

| molecule | solubility |
| --- | --- |
| CC(=O)NCC1CCN(Cc2cc(Oc3ccc(N4CCN(CCC(=O)O)CC4)nc3)nc(-c3cc(Cl)cc(Cl)c3)c2)CC1 [Freeform Type A] | < 1900 µg/mL |

###

Assay: Solubility profile of freeform Type D in citrate buffers
Type: physicochemical
Details: aqueous buffer, thermodynamic from solid; 50 mM citrate buffer, buffer pH 3.76, RT, 24 hours, end pH 4.82; read-out: Solubility
measured endpoint: solubility at 24 h (mg/mL)

| molecule | measured endpoint | measurement |
| --- | --- | --- |
| CC(=O)NCC1CCN(Cc2cc(Oc3ccc(N4CCN(CCC(=O)O)CC4)nc3)nc(-c3cc(Cl)cc(Cl)c3)c2)CC1 [Freeform Type D] | solubility at 24 h | 23.8 |

###

Test: Equilibrium solubility in pH buffers (3.0-8.0), 20% captisol and water
Format: physicochemical
Details: H2O, RT, 24 hrs
Method: Additional solids were added into the sample to generate suspension if clear solution obtained. The suspension was equilibrated via stirring (1000 rpm). The suspension was centrifuged to obtain precipitate and supernatants. Solubility and pH were tested for the supernatants after filtration, and isolated precipitate was tested by XRPD. […]
Structures can show the parent of a compound that is named as a salt.
measured endpoint: S: solubility

| molecule | measurement |
| --- | --- |
| CC(=O)NCC1CCN(Cc2cc(Oc3ccc(N4CCN(CCC(=O)O)CC4)nc3)nc(-c3cc(Cl)cc(Cl)c3)c2)CC1 [Compound (I) freeform] | 20 µg/mL |
| CC(=O)NCC1CCN(Cc2cc(Oc3ccc(N4CCN(CCC(=O)O)CC4)nc3)nc(-c3cc(Cl)cc(Cl)c3)c2)CC1 [Sulfate Type B] | 1970 µg/mL |
| CC(=O)NCC1CCN(Cc2cc(Oc3ccc(N4CCN(CCC(=O)O)CC4)nc3)nc(-c3cc(Cl)cc(Cl)c3)c2)CC1 [Fumarate Type A] | 1850 µg/mL |
| CC(=O)NCC1CCN(Cc2cc(Oc3ccc(N4CCN(CCC(=O)O)CC4)nc3)nc(-c3cc(Cl)cc(Cl)c3)c2)CC1 [HCl salt Type F] | 4240 µg/mL |

###

Assay: Approximate solubility at RT
Type: physicochemical
Settings: DMSO, organic solvent or mixture, thermodynamic from solid, DMSO, RT; read-out: Solubility

| compound | solubility |
| --- | --- |
| CC(=O)NCC1CCN(Cc2cc(Oc3ccc(N4CCN(CCC(=O)O)CC4)nc3)nc(-c3cc(Cl)cc(Cl)c3)c2)CC1 [Freeform Type A] | 17 to 34 mg/mL |

###

Test: Solubility profile of freeform Type D in citrate buffers
Type: physicochemical
Details: aqueous citrate buffer, aqueous buffer; citrate salt prepared in situ, summary statement; read-out: aqueous solubility
Structures can show the parent of a compound that is named as a salt.

| molecule | solubility at 24 h |
| --- | --- |
| CC(=O)NCC1CCN(Cc2cc(Oc3ccc(N4CCN(CCC(=O)O)CC4)nc3)nc(-c3cc(Cl)cc(Cl)c3)c2)CC1 [citrate salt] | > 50 mg/mL |

###

Test: Complexation stability constant test: solubility in SBECD solutions
Format: physicochemical
Settings: 15% (w/w) SBECD solution, pH 7.9, aqueous with cosolvent or surfactant or cyclodextrin, thermodynamic from solid; 15% SBECD (162.70 mmol/L); read-out: API Solubility
measured endpoint: solubility at 24 h (mM)

| compound | readout units | measurement |
| --- | --- | --- |
| CC(=O)NCC1CCN(Cc2cc(Oc3ccc(N4CCN(CCC(=O)O)CC4)nc3)nc(-c3cc(Cl)cc(Cl)c3)c2)CC1 [Freeform Type D] | mM | 13.7 |

###

Assay: Solubility profile of freeform Type D in citrate buffers
Assay type: physicochemical
Conditions: aqueous buffer, thermodynamic from solid; 50 mM citrate buffer, buffer pH 4.70, RT, 24 hours, end pH 4.93; read-out: Solubility
measured endpoint: solubility at 24 h (µg/mL)

| compound | measured endpoint | measurement |
| --- | --- | --- |
| CC(=O)NCC1CCN(Cc2cc(Oc3ccc(N4CCN(CCC(=O)O)CC4)nc3)nc(-c3cc(Cl)cc(Cl)c3)c2)CC1 [Freeform Type D] | solubility at 24 h | 4700 |

###

Assay: Equilibrium solubility in pH buffers (3.0-8.0), 20% captisol and water
Type: physicochemical
Conditions: H2O, 24 hrs
Counter-ions that a name gives are not always drawn.
measured endpoint: FC: form change (XRPD of precipitate)

| compound | measurement |
| --- | --- |
| CC(=O)NCC1CCN(Cc2cc(Oc3ccc(N4CCN(CCC(=O)O)CC4)nc3)nc(-c3cc(Cl)cc(Cl)c3)c2)CC1 [Fumarate Type A] | 4 (1/2/3/4/5: new Form 1/2/3/4/5) |
| CC(=O)NCC1CCN(Cc2cc(Oc3ccc(N4CCN(CCC(=O)O)CC4)nc3)nc(-c3cc(Cl)cc(Cl)c3)c2)CC1 [HCl salt Type F] | 5 (1/2/3/4/5: new Form 1/2/3/4/5) |

###

Recorded S: solubility for the following compounds
Assay: Equilibrium solubility in pH buffers (pH 4.0-6.0) with pH adjustment
Assay type: physicochemical
Conditions: pH = 6.0 buffer (50 mM citrate), RT, with pH adjustment
Where a name gives a salt, the structure may show the parent alone.
measured endpoint: S: solubility

| compound | measured endpoint | measurement |
| --- | --- | --- |
| CC(=O)NCC1CCN(Cc2cc(Oc3ccc(N4CCN(CCC(=O)O)CC4)nc3)nc(-c3cc(Cl)cc(Cl)c3)c2)CC1 [Sulfate Type B] | S: solubility | 70 µg/mL |
| CC(=O)NCC1CCN(Cc2cc(Oc3ccc(N4CCN(CCC(=O)O)CC4)nc3)nc(-c3cc(Cl)cc(Cl)c3)c2)CC1 [HCl salt Type F] | S: solubility | 1150 µg/mL |
| CC(=O)NCC1CCN(Cc2cc(Oc3ccc(N4CCN(CCC(=O)O)CC4)nc3)nc(-c3cc(Cl)cc(Cl)c3)c2)CC1 [Freeform Type A] | S: solubility | 150 µg/mL |
| CC(=O)NCC1CCN(Cc2cc(Oc3ccc(N4CCN(CCC(=O)O)CC4)nc3)nc(-c3cc(Cl)cc(Cl)c3)c2)CC1 [Fumarate Type A] | S: solubility | 240 µg/mL |

###

Assay: Approximate solubility at RT
Format: physicochemical
Settings: 2-MeTHF, organic solvent or mixture, thermodynamic from solid, 2-MeTHF, RT; read-out: Solubility

| molecule | solubility |
| --- | --- |
| CC(=O)NCC1CCN(Cc2cc(Oc3ccc(N4CCN(CCC(=O)O)CC4)nc3)nc(-c3cc(Cl)cc(Cl)c3)c2)CC1 [Freeform Type A] | < 1700 µg/mL |
